# System: stable HCV 2a JFH-1 Rluc replicon cells (L31 present in NS5A)
# Run description: Renilla luciferase HCV replicon reporter assay, genotype 2a JFH-1
# Format: cell-based
# Settings: Hepatitis C virus, read-out: 2a JFH (nM), genotype 2a JFH-1 replicon (L31 in NS5A), stable cells
# Experimental: Evaluation of Cell-Based Anti-HCV Activity: Antiviral potency (EC50) was determined using a Renilla luciferase (RLuc)-based HCV replicon reporter assay. […] 72 hours later, cells were lysed and Renilla luciferase activity quantified as recommended by the manufacturer (Promega-Madison, Wis.). […]
Rule for this label: MET means EC50 is less than 0.02 nM; NOT MET means EC50 is at least 0.02 nM.

Here's what some known entries look like.
[
  {
    "Compound": "COC(=O)N[C@H](C(=O)N1C[C@@H](C)C[C@H]1c1ncc(-c2ccc3c(c2)COc2cc4c(ccc5nc([C@@H]6CC[C@H](C)N6C(=O)[C@@H](NC(=O)OC)C6CCOCC6)[nH]c54)cc2-3)[nH]1)C(C)C [FN]",
    "Measured target": "stable HCV 2a JFH-1 Rluc replicon cells (L31 present in NS5A)",
    "Assigned label": "NOT MET"
  },
  {
    "Compound": "CC[C@H]1CC[C@@H](c2nc3ccc4cc5c(cc4c3[nH]2)OCc2cc(-c3cnc([C@@H]4CC[C@H](C)N4C(=O)[C@@H](NC(=O)OC)C(C)C)[nH]3)ccc2-5)N1C(=O)[C@@H](NC(=O)OC)[C@@H](C)OC [EP]",
    "Measured target": "stable HCV 2a JFH-1 Rluc replicon cells (L31 present in NS5A)",
    "Assigned label": "MET"
  },
  {
    "Compound": "COC(=O)N[C@H](C(=O)N1[C@@H](C)CC[C@H]1c1ncc(-c2ccc3c(c2)COc2cc4c(ccc5nc([C@@H]6CC[C@H](C)N6C(=O)[C@@H](NC(=O)OC)C6CCOCC6)[nH]c54)cc2-3)[nH]1)C(C)C [FC]",
    "Measured target": "stable HCV 2a JFH-1 Rluc replicon cells (L31 present in NS5A)",
    "Assigned label": "MET"
  },
  {
    "Compound": "COC(=O)N[C@H](C(=O)N1[C@@H](C)CC[C@H]1c1ncc(-c2ccc3c(c2)COc2cc4c(ccc5nc([C@@H]6C[C@H](COC(F)F)CN6C(=O)[C@@H](NC(=O)OC)[C@@H](C)OC)[nH]c54)cc2-3)[nH]1)C(C)C [FO]",
    "Measured target": "stable HCV 2a JFH-1 Rluc replicon cells (L31 present in NS5A)",
    "Assigned label": "MET"
  },
  {
    "Compound": "CCC[C@H](NC(=O)OC)C(=O)N1[C@@H](C)CC[C@H]1c1ncc(-c2ccc3c(c2)COc2cc4c(ccc5nc([C@@H]6CC[C@H](C)N6C(=O)[C@H](CCC)NC(=O)OC)[nH]c54)cc2-3)[nH]1 [HA]",
    "Measured target": "stable HCV 2a JFH-1 Rluc replicon cells (L31 present in NS5A)",
    "Assigned label": "NOT MET"
  },
  {
    "Compound": "COC[C@H]1C[C@@H](c2ncc(-c3ccc4c(c3)COc3cc5c(ccc6nc([C@@H]7C[C@H](COC)CN7C(=O)[C@H](NC(=O)OC)c7ccccc7)[nH]c65)cc3-4)[nH]2)N(C(=O)[C@H](NC(=O)OC)c2ccccc2)C1 [EY]",
    "Measured target": "stable HCV 2a JFH-1 Rluc replicon cells (L31 present in NS5A)",
    "Assigned label": "NOT MET"
  },
  {
    "Compound": "CC[C@H]1C[C@@H](c2ncc(-c3ccc4c(c3)COc3cc5c(ccc6nc([C@@H]7CC[C@H](C)N7C(=O)[C@@H](NC(=O)OC)C(C)C)[nH]c65)cc3-4)[nH]2)N(C(=O)[C@@H](NC(=O)OC)[C@@H](C)OC)C1 [GX]",
    "Measured target": "stable HCV 2a JFH-1 Rluc replicon cells (L31 present in NS5A)",
    "Assigned label": "MET"
  },
  {
    "Compound": "COC(=O)N[C@H](C(=O)N1[C@@H](C)CC[C@H]1c1ncc(-c2ccc3c(c2)COc2cc4c(ccc5nc([C@@H]6C[C@H](C)CN6C(=O)[C@@H](NC(=O)OC)[C@H](C)OC)[nH]c54)cc2-3)[nH]1)C(C)C [FU]",
    "Measured target": "stable HCV 2a JFH-1 Rluc replicon cells (L31 present in NS5A)",
    "Assigned label": "NOT MET"
  }
]

Inquiry: Take the compound CC[C@H]1CC[C@@H](c2nc3ccc4cc5c(cc4c3[nH]2)OCc2cc(-c3cnc([C@@H]4CC[C@H](C)N4C(=O)[C@@H](NC(=O)OC)C(C)C)[nH]3)ccc2-5)N1C(=O)[C@@H](NC(=O)OC)C1CCOCC1 [EO] and say whether its EC50 is less than 0.02 nM.
Reply text: MET
